- System: myeloid cell line derived from MUTZ-3
- MEASUREMENT_NOTES: Cytotoxicity / viability by flow cytometry (propidium iodide), 24 hours exposure
- RUN_PARAMETERS: yes/no; MUTZ-3 derived cells
REPORTED_PROPERTY: cytotox

Example entries begin here.
{"columns": ["MOLECULE", "cytotox"],
 "data": [
  ["CC(C)=CCCC(C)CCO (stereo not drawn) [citronellol]", "no"],
  ["OCCNCCO [diethanolamine]", "no"],
  ["O=C(O)CC(O)(CC(=O)O)C(=O)O [citric acid]", "no"],
  ["CC(C)(O)CCCC1=CCC(C=O)CC1 (stereo not drawn) [lyral]", "yes"],
  ["CC(C)C1=CC2=CC[C@@H]3[C@](C)(CCC[C@@]3(C)C(=O)O)[C@H]2CC1 [abietic acid]", "no"],
  ["Oc1c(Cl)c(Cl)c(Cl)c(Cl)c1Cl [pentachlorophenol]", "no"],
  ["Cc1cccc(O)c1O [3-methylcatechol, 3-Methylcatechol]", "yes"],
  ["CCCOC(=O)c1cc(O)c(O)c(O)c1 [propyl gallate]", "yes"]
]}

The value of cytotox measured for the molecule O=CCCCC=O [glutaraldehyde] turned out to be yes

The value of cytotox measured for the molecule CN(C)CCCN1c2ccccc2Sc2ccc(Cl)cc21 [chlorpromazine] turned out to be yes

The value of cytotox measured for the molecule CCCCCC#CC(=O)OC [methyl heptine carbonate] turned out to be yes

The value of cytotox measured for the molecule O=C(O)C(O)C(O)C(=O)O (stereo not drawn) [tartaric acid] turned out to be no

The value of cytotox measured for the molecule CCOC(=O)c1ccc(N)cc1 [benzocaine] turned out to be no

The value of cytotox measured for the molecule CCCCCCCCCCCCCC(=O)OC(C)C [isopropyl myristate] turned out to be no

The value of cytotox measured for the molecule OCc1ccccc1 [benzyl alcohol] turned out to be no

====

- Test system: myeloid cell line derived from MUTZ-3
- MEASUREMENT_NOTES: Cytotoxicity / viability by flow cytometry (propidium iodide), 24 hours exposure
- RUN_PARAMETERS: yes/no; MUTZ-3 derived cells
REPORTED_PROPERTY: cytotox

Example entries begin here.
{"columns": ["COMPOUND", "EXPERIMENTAL_SYSTEM", "cytotox"],
 "data": [
  ["C=CC(C)(O)CCC=C(C)C (stereo not drawn)", "myeloid cell line derived from MUTZ-3", "no"],
  ["Clc1nc(Cl)nc(Cl)n1 [cyanuric chloride]", "myeloid cell line derived from MUTZ-3", "yes"],
  ["O=C(OCc1ccccc1)c1ccccc1 [benzyl benzoate]", "myeloid cell line derived from MUTZ-3", "yes"],
  ["CC(C)=CCCC(C)=CC=O", "myeloid cell line derived from MUTZ-3", "yes"],
  ["CCCCCCOC(=O)c1ccccc1O [hexyl salicylate]", "myeloid cell line derived from MUTZ-3", "yes"]
]}

// switching to the query compound
The value of cytotox measured for the compound O=C1C=CC(=O)C=C1 turned out to be yes

Hello, the source for this data is patent US11324787B2, in case you need it.
